Reported ALOMY damage score values are given for each entry in this list.
Test system: Alopecurus myosuroides
Test: Post-emergence herbicidal activity, ALOMY
Assay type: in vivo
Set-up: key: 5=total damage to plant; 0=no damage to plant
Conditions: application post-emergence, 1000 g/Ha, evaluated after 13 days, scale 0-5
observable: ALOMY damage score

molecule | observable | measured value
CN1CC(O)N(c2cc(C(F)(F)F)n(C)n2)C1=O (stereo not shown) | ALOMY damage score | 5
CCOC1C(O)N(c2cc(C(C)(C)C)n(C)n2)C(=O)N1C (stereo not shown) | ALOMY damage score | 5
CN1CC(O)N(c2nn(C)c(C(C)(C)C)c2C#N)C1=O (stereo not shown) | ALOMY damage score | 3
CC1C(O)N(c2nn(C)c(C(C)(C)C)c2C#N)C(=O)N1C (stereo not shown) | ALOMY damage score | 4
C[C@@H]1C(O)N(c2cc(C(F)(F)F)n(C)n2)C(=O)N1C (stereo partly shown) | ALOMY damage score | 5
CON1C(=O)N(c2cc3n(n2)CCC3(C)C)C(O)C1C (stereo not shown) | ALOMY damage score | 4
CN1CC(O)N(c2cc3n(n2)CCC3(C)C)C1=O (stereo not shown) | ALOMY damage score | 5
CON1C(=O)N(c2cc(C(C)(C)C)n(C)n2)C(O)C1C (stereo not shown) | ALOMY damage score | 5
CN1C(=O)N(c2cc(C(F)(F)F)n(C)n2)C(O)C1O (stereo not shown) | ALOMY damage score | 5
CC1NC(=O)N(c2cc(C(C)(C)C)n(C)n2)C1O (stereo not shown) | ALOMY damage score | 3

---

Tested on: Zea mays
Assay: Post-emergence herbicidal activity, ZEAMX
Format: in vivo
Details: application post-emergence, 1000 g/Ha, evaluated after 13 days, scale 0-5

compound | ZEAMX damage score
CCOC1C(O)N(c2cc(C(F)(F)F)n(C)n2)C(=O)N1C (stereo not drawn) | 4
CC1C(O)N(c2cc(C(C)(C)C)n(C)n2)C(=O)N1C (stereo not drawn) | 4
CN1C(=O)N(c2cc(C(F)(F)F)n(C)n2)C(O)C1O (stereo not drawn) | 4
